test: KB-8-5-11 Cancer Cell Toxicity qHTS against the NCATS CANVASS Library (AID 1347364); note: nearly all actives have a fitted effect of over 75% in size
condition.notes: KB-8-5-11 MDR cells viability, CellTiter-Glo, 72 h; series mostly up to 46.1 µM
Results filed as inconclusive are left out. Active and inactive are the calls of the source. Calls come from the whole dose curve; as a rule, active = well fitted cell-killing curve with a large enough effect; inconclusive = small, poorly fitted or top-dose-only effect; inactive = flat fitted curve, though single readings scatter. Bridge positions count the residues as written; N and C are the ends. Square brackets hold non-standard residues; d marks the D form. Side chains are listed from the residue outwards. Peptide text beside a SMILES is read from it. * marks the point of attachment. Phg(4-OMe) = COc1ccc([C@H](N)C(=O)O)cc1; d(aIle) = CC[C@H](C)[C@@H](N)C(=O)O; d(aThr) = C[C@@H](O)[C@@H](N)C(=O)O; NMeF = CN[C@@H](Cc1ccccc1)C(=O)O; Isobutyryl = CC(C)C(=O)*
Classes used: true (1) = active, false (0) = inactive

- compound: "CC[C@H](C)[C@H]1NC(=O)[C@@H](NC(=O)C(C)C)[C@@H](C)OC(=O)[C@H](COC(=O)CNC(C)=O)NC(=O)[C@@H]([C@@H](C)O)NC(=O)[C@H](Cc2ccccc2)N(C)C(=O)[C@H](c2ccc(OC)cc2)NC1=O (Isobutyryl-T[d(aIle)][Phg(4-OMe)][NMeF][d(aThr)]S([Gly-Ac]); ester 1-C)"
  class.label: "false (0)"
- compound: "C/C(=C\\[C@H](C)C(=O)C[C@H](O)CC1CC(=O)NC(=O)C1)[C@@H]1OC(=O)CCCC/C=C/C[C@@H](O)[C@@H]1C"
  class.label: "false (0)"
- compound: "CN1CCc2cc3c(c4c2C1(C)C(=O)c1cc(O)ccc1-4)OCO3 (configuration not stated)"
  class.label: "true (1)"
- compound: "CO[C@@H]1[C@H](O)[C@@H](C)O[C@@H](OC[C@@H]2C(C)OC(=O)/C=C/[C@H](C)C(O[C@@H]3O[C@H](C)CC4(OC(=O)O[C@@H]4C)C3O)[C@@H](C)CC(C)C(=O)/C=C/[C@H]3OC23)[C@@H]1OC (some centres not stated)"
  class.label: "false (0)"
- compound: "C[C@]12CCC[C@](C)(C(=O)O)[C@@H]1CC[C@@]1(C)c3cocc3CC[C@H]21"
  class.label: "false (0)"
- compound: "Cc1cc(O)cc2c1C(=O)c1c(O)cc(O)cc1C2=O"
  class.label: "false (0)"
- compound: "C[n+]1cc2cc(C(N)=O)[nH]c3c(=N)c(Cl)c(N)c1c23"
  class.label: "false (0)"
- compound: "O=C1CC(c2ccc(O)cc2)Oc2cc(O)cc(O)c21 (configuration not stated)"
  class.label: "false (0)"
- compound: "C[C@H](CCC(O)C(C)(O)CO)[C@@]1(O)CC[C@@]2(C)C3=C(CC[C@@]21C)[C@@]1(C)CCC(OC(=O)CCC(=O)O)C(C)(C)[C@@H]1CC3 (some centres not stated)"
  class.label: "false (0)"
- compound: "COc1cc(O)c(C(=O)[C@@H]2[C@H](CC=C(C)C)C(C)=CC[C@H]2c2ccccc2)c(O)c1"
  class.label: "true (1)"
- compound: "C/C=C/[C@H]1[C@H]2C(=O)c3c(O)c(C)c(O)c(C)c3[C@]1(C(=O)O)C(=O)C=C2C"
  class.label: "false (0)"
- compound: "C=CC(C)(C)C(=O)[C@@H](C)[C@@H]1CC[C@@](C)(C=C)O1"
  class.label: "false (0)"
- compound: "COc1c(O)cc2c(c1O)C(=O)c1c(coc1C)C2=O"
  class.label: "false (0)"
- compound: "C/C(=C\\[C@H](C)C(=O)C[C@H](O)CC1CC(=O)NC(=O)C1)[C@@H]1OC(=O)CCCC/C=C/[C@@H](O)C[C@@H]1C"
  class.label: "false (0)"
- compound: "C=C[C@]1(C)CC[C@@H]([C@H](C)C(=O)CC=C(C)C)O1"
  class.label: "false (0)"
- compound: "C[C@@]12C[C@@H](C[C@@H]3C(=O)O[C@@H](c4ccoc4)[C@H](OC(=O)c4ccccc4)[C@@H]31)OC2=O"
  class.label: "false (0)"
- compound: "CC(C)=CCC[C@]1(C)[C@H]2CC(=O)[C@@]3(CO3)[C@@H]1C2"
  class.label: "false (0)"

====

test: OV-KATE Cancer Cell Toxicity qHTS against the NCATS CANVASS Library (AID 1347345)
condition.notes: OV-KATE cells viability, CellTiter-Glo luminescence, 72 h; series mostly up to 38.3 µM
Results filed as inconclusive are left out. Calls of active or inactive are those of the source. Calls follow the shape of the dose curve; as a rule, active = well fitted cell-killing curve with a large enough effect; inconclusive = small, poorly fitted or top-dose-only effect; inactive = flat fitted curve, though single readings scatter. Bridge positions count the residues as written; N and C are the ends. Square brackets hold non-standard residues; d marks the D form. Side chains are listed from the residue outwards. Peptide text beside a SMILES is read from it. * marks the point of attachment. Phg(4-OMe) = COc1ccc([C@H](N)C(=O)O)cc1; d(aIle) = CC[C@H](C)[C@@H](N)C(=O)O; d(aThr) = C[C@@H](O)[C@@H](N)C(=O)O; NMeF = CN[C@@H](Cc1ccccc1)C(=O)O; Isobutyryl = CC(C)C(=O)*; Hexanoyl = CCCCCC(=O)*
Classes used: class 1 = active, class 0 = inactive

- compound: "O=C1CC2OCC=C3CN4C5CC3C2[C@@H]2N1c1ccccc1[C@]52C[C@@H]4C1=C[C@H]2C3CC4N(CC[C@@]45c4ccccc4N(C1=O)[C@@H]25)C/C3=C/CO (stereo not given in full)"
  class.label: "class 0"
- compound: "C=C1C[C@]23C=CC(=O)[C@@](C)(CCCC(C)C(=O)N[C@@H](CO)C(=O)O)[C@@H]2C[C@@H]1CC3 (stereo not given in full)"
  class.label: "class 0"
- compound: "CC[C@H](C)[C@H]1NC(=O)[C@@H](NC(=O)C(C)C)[C@@H](C)OC(=O)[C@H](COC(=O)CNC(C)=O)NC(=O)[C@@H]([C@@H](C)O)NC(=O)[C@H](Cc2ccccc2)N(C)C(=O)[C@H](c2ccc(OC)cc2)NC1=O (Isobutyryl-T[d(aIle)][Phg(4-OMe)][NMeF][d(aThr)]S([Gly-Ac]); ester 1-C)"
  class.label: "class 0"
- compound: "C=C1CCC2C(C)(C(=O)O)CCC(CC/C(C)=C/C(=O)NC(CCC(N)=O)C(=O)O)[C@@]2(C)C1 (stereo not given in full)"
  class.label: "class 0"
- compound: "C/C1=C/[C@@H](C)[C@H](O)C/C=C/CC/C=C/C(=O)O[C@@H]1[C@H](C)C(=O)CCCC1CC(=O)NC(=O)C1"
  class.label: "class 0"
- compound: "[C-]#[N+][C@@]12C(=O)[C@@H]3[C@@H](O[C@@]4(C(=O)N(C)c5cccc1c54)C3(C)C)C(=O)[C@@]2(C)C=C"
  class.label: "class 0"
- compound: "CC1=C(C)C(=O)OC(C(C)C2(O)CCC3C4C5OC5C5(O)CC=CC(=O)C5(C)C4CCC32C)C1 (stereo not given)"
  class.label: "class 0"
- compound: "COc1cc2c(cc1OC)[C@@H](c1ccc3c(c1)OCO3)C(C)C(C)C2=O (stereo not given in full)"
  class.label: "class 0"
- compound: "CC(C)[C@@H]1CC(=O)c2coc3c2[C@H]1C[C@@H](C)C3=O"
  class.label: "class 0"
- compound: "C=C[C@]1(C)CC[C@@H]([C@H](C)C(=O)CC=C(C)C)O1"
  class.label: "class 0"
- compound: "C=C1C[C@H]2O[C@@H]3[C@@H]4[C@H](CC[C@@](C)(O)[C@@H]42)[C@H](C)COC3(C)[C@@H](OC(=O)CCCCCCC)CC1=O (stereo not given in full)"
  class.label: "class 1"
- compound: "C/C(=C\\[C@@H](C)CC/C=C/CC/C=C/C(=O)O)[C@@H](O)[C@H](C)C(=O)CCCC1CC(=O)NC(=O)C1"
  class.label: "class 0"
- compound: "CCCCCC(=O)N[C@@H](CC(C)C)C(=O)N[C@H](C=O)CCC(=O)O (Hexanoyl-Leu-Glu-aldehyde)"
  class.label: "class 0"
- compound: "O=C1c2c(O)cc(O)cc2OC(c2ccc(O)cc2)C1O (stereo not given)"
  class.label: "class 0"
- compound: "C/C=C(/C)c1cc(O)c(C)c2c1Oc1cc(O)cc(C)c1C(=O)O2"
  class.label: "class 0"

====

test: qHTS Assay for Lipid Storage Modulators (AID 1519); note: % is set by controls: 0 for no effect and ±100 for the full control effect
condition.notes: Drosophila S3 cells, BODIPY lipid droplet/cell ratio, laser cytometry; at 57.5 µM (top of the series); cells loaded with oleic acid
Records with an inconclusive call do not appear.

- molecule: "COc1cccc(-c2cc(NCc3cccs3)ncn2)c1"
  unit.name: "%"
  activity change, negative = inhibition: 9.36
- molecule: "COc1ccccc1CN1CC[C@@]2(CCCN(C(=O)c3cccc(F)c3)C2)C1"
  unit.name: "%"
  activity change, negative = inhibition: 5.1
- molecule: "c1nc(NC2CCNCC2)c2cc(-c3ccoc3)ccc2n1"
  unit.name: "%"
  activity change, negative = inhibition: 0.0897
- molecule: "COc1ccccc1CN1CC2(CCN(S(C)(=O)=O)CC2)C1"
  unit.name: "%"
  activity change, negative = inhibition: 6.08
- molecule: "COc1ccc(C(=O)N2CCC[C@@]3(CCN(Cc4ccc(C#N)cc4)C3)C2)cc1"
  unit.name: "%"
  activity change, negative = inhibition: 3.64
- molecule: "CNc1ccnc(-c2ccccc2CN(C)C)n1"
  unit.name: "%"
  activity change, negative = inhibition: 2.03
- molecule: "CN(C)Cc1ccccc1-c1cncnc1Nc1ccncc1"
  unit.name: "%"
  activity change, negative = inhibition: 4.9
- molecule: "CNC(=O)[C@H]1O[C@@H](n2cnc3c(NCc4cccc(I)c4)ncnc32)[C@H](O)[C@H]1O"
  unit.name: "%"
  activity change, negative = inhibition: 1.11
- molecule: "COc1ccccc1-c1cncnc1Nc1ccc(F)cc1"
  unit.name: "%"
  activity change, negative = inhibition: 10.5
- molecule: "O=C(c1ccncc1)N1CCC2(CC1)CN(c1ccccc1)C2"
  unit.name: "%"
  activity change, negative = inhibition: 6.84
- molecule: "CC(C)NC(=O)N1CC2(CCN(S(=O)(=O)c3ccccc3)CC2)C1"
  unit.name: "%"
  activity change, negative = inhibition: -7.9
- molecule: "CS(=O)(=O)Nc1cccc(-c2nccc(NCc3ccccc3)n2)c1"
  unit.name: "%"
  activity change, negative = inhibition: 6.93
- molecule: "Cc1cnc(CNc2ncncc2-c2ccccc2C(F)(F)F)cn1"
  unit.name: "%"
  activity change, negative = inhibition: 7.68
- molecule: "O=C(Nc1cccc(F)c1)N1CCC2(CCNCC2)CC1"
  unit.name: "%"
  activity change, negative = inhibition: 2.6
- molecule: "COCCNc1ncnc2ccc(-c3ccoc3)cc12"
  unit.name: "%"
  activity change, negative = inhibition: 0.0459
- molecule: "CS(=O)(=O)N1CCC[C@@]2(CCN(c3ccccc3)C2)C1"
  unit.name: "%"
  activity change, negative = inhibition: -16.2
- molecule: "Cn1cc(-c2nc3cnc(Oc4ccccc4)nc3n(C)c2=O)c2ccccc21"
  unit.name: "%"
  activity change, negative = inhibition: -0.452
- molecule: "CS(=O)(=O)N1CCC2(CCCN(c3ccncc3)C2)CC1"
  unit.name: "%"
  activity change, negative = inhibition: 4.5
- molecule: "Cc1ccccc1-c1ccc2ncnc(NC3CC3)c2c1"
  unit.name: "%"
  activity change, negative = inhibition: -3.61
- molecule: "C=C[C@@](C)(O)CC[C@@H]1[C@@]2(C)CCCC(C)(C)[C@@H]2CC[C@@]1(C)O"
  unit.name: "%"
  activity change, negative = inhibition: -12.3
- molecule: "COc1ccc(-c2nc3cnc(N4CCOCC4)nc3n(-c3ccccc3)c2=O)cc1"
  unit.name: "%"
  activity change, negative = inhibition: 1.08
- molecule: "CN(C)c1ccc(-c2nc(N(C)Cc3ccco3)c3ccccc3n2)cc1"
  unit.name: "%"
  activity change, negative = inhibition: 10.8
- molecule: "COCCn1c(=O)cnc2cnc(Oc3ccccc3)nc21"
  unit.name: "%"
  activity change, negative = inhibition: 3.04
